These measurements were taken from ChEMBL document CHEMBL4052588.

experiment: Cmax in CD-1 mouse blood at 3 mg/kg, po; type: ADME, organism-based; parameters: dose 3 mg/kg, route oral; conditions: whole blood
OBSERVATION_TYPE: Cmax (µM)
Your answer is read as µM, so omit the unit and give the number.

Fill in: Cmax of Cc1cc2cc(NS(=O)(=O)c3ccc(C#N)cc3)ccc2n(C)c1=O is ___
4

###

assay: AUC (0 to infinity) in CD-1 mouse blood at 3 mg/kg, po; format: ADME, organism-based; design: dose 3 mg/kg, time infinity, route oral; details: whole blood
OBSERVATION_TYPE: AUC(0-inf) (ng·h/mL)
Your answer is read as ng·h/mL, so omit the unit and give the number.

Fill in: AUC(0-inf) of Cc1cc2cc(NS(=O)(=O)c3ccc(C#N)cc3)ccc2n(C)c1=O is ___
5700

###

test: Oral bioavailability in CD-1 mouse at 3 mg/kg; format: ADME, organism-based; settings: in vivo
OBSERVATION_TYPE: bioavailability (%)
Your answer is read as %, so omit the unit and give the number.

Fill in: bioavailability of Cc1cc2cc(NS(=O)(=O)c3ccc(C#N)cc3)ccc2n(C)c1=O is ___
49

###

target: Bromodomain-containing protein 4 (Homo sapiens, UniProt O60885); experiment: Inhibition of human BRD4-BD1 expressed in Escherichia coli BL21 after 1 hr by BROMOscan assay
OBSERVATION_TYPE: pIC50
Lab note: report pIC50 as minus log10 of the concentration in molar units, number only.

# value lookup — system Bromodomain-containing protein 4 (Homo sapiens, UniProt O60885), readout pIC50, item Cc1cc2cc(NS(=O)(=O)c3ccc(C#N)cc3)ccc2n(C)c1=O
5.35

# value lookup — system Bromodomain-containing protein 4 (Homo sapiens, UniProt O60885), readout pIC50, item Cn1c(=O)ccc2cc(NS(=O)(=O)c3ccc(C#N)c(Cl)c3)ccc21
5.14

# value lookup — system Bromodomain-containing protein 4 (Homo sapiens, UniProt O60885), readout pIC50, item COc1ccccc1S(=O)(=O)Nc1ccc2c(c1)cc(C)c(=O)n2C
6.22

# value lookup — system Bromodomain-containing protein 4 (Homo sapiens, UniProt O60885), readout pIC50, item COc1ccccc1C(=O)Nc1cc2cc(C)c(=O)n(C)c2cc1N1CCCC1
5.34

# value lookup — system Bromodomain-containing protein 4 (Homo sapiens, UniProt O60885), readout pIC50, item Cn1c(=O)ccc2cc(NS(=O)(=O)c3ccccc3)ccc21
5.77

# value lookup — system Bromodomain-containing protein 4 (Homo sapiens, UniProt O60885), readout pIC50, item COc1cc2c(cc1NS(=O)(=O)c1ccc(C#N)cc1)c(C)cc(=O)n2C
4.77

# value lookup — system Bromodomain-containing protein 4 (Homo sapiens, UniProt O60885), readout pIC50, item Cn1c(=O)ccc2ccccc21
4.14

# value lookup — system Bromodomain-containing protein 4 (Homo sapiens, UniProt O60885), readout pIC50, item Cn1c(=O)ccc2cc(NS(=O)(=O)c3ccc(C#N)cc3)ccc21
5.55

###

biological target: Bromodomain-containing protein 1 (Homo sapiens); assay: Binding affinity to human BRPF2 by isothermal titration calorimetry
Sequence (O95696 whole entry): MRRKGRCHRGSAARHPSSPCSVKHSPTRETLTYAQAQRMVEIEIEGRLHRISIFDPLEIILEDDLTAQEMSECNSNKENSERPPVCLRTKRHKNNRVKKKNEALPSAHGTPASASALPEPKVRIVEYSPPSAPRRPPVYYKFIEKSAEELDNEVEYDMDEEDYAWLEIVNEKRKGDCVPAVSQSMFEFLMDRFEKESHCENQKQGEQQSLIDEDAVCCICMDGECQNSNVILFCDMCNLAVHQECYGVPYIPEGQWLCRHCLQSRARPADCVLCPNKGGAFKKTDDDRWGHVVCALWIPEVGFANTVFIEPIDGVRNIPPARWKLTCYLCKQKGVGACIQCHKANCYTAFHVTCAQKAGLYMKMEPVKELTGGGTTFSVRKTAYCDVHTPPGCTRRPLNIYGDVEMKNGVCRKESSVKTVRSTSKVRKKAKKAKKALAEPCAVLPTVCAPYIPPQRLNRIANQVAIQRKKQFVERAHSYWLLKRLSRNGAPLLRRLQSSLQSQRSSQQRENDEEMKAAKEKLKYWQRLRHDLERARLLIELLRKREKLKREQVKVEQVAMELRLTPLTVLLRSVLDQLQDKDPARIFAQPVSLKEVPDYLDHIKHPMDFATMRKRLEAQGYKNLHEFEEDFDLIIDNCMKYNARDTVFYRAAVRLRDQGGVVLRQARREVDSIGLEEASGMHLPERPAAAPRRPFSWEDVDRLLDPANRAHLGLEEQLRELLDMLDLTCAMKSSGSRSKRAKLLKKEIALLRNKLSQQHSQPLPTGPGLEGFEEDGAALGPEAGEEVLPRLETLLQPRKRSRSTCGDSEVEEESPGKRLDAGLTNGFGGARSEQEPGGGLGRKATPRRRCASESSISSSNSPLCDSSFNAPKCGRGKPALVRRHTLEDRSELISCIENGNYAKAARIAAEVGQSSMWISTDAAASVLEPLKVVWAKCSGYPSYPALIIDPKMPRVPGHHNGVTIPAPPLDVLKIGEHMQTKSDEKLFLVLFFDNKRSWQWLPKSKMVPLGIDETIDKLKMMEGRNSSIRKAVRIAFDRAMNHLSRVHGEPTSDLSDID
OBSERVATION_TYPE: pKd
Lab note: report pKd as minus log10 of the concentration in molar units, number only.

Fill in: pKd of Cc1cc2cc(NS(=O)(=O)c3ccc(C#N)cc3)ccc2n(C)c1=O is ___
6.68
